molecular target: FLuc-C-HiBiT (Photinus pyralis); construct: firefly luciferase with C-terminal HiBiT tag, E. coli expressed; assay: biochemical; conditions: enzyme activity, 10 uM ATP; read-out: IC50 or SDR50 (mM) / FLuc E
Sequence (P08659 whole entry, looked up): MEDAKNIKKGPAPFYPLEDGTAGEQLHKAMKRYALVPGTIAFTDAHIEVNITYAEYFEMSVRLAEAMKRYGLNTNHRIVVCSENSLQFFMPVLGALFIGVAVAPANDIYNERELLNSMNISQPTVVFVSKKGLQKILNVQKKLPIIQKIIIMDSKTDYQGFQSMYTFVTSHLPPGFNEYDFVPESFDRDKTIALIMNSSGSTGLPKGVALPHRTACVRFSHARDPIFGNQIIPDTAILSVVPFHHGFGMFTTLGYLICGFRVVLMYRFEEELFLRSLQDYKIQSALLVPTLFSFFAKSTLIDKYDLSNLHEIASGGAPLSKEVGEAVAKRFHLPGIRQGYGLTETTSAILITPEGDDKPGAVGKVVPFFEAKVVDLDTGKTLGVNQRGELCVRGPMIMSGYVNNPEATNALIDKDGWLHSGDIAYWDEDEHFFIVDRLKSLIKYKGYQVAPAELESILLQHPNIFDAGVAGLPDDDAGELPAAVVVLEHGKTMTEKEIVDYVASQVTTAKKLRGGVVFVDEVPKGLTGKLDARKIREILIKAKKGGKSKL
parameter-measured: IC50 (mM)

Solved entries (count: 3):
>  <compound>
CCNc1cc(N2CCC(CCC(=O)Nc3ccc4c(c3)OCCO4)CC2)ncn1

>  <IC50 / mM>
0.0124

$$$$
>  <compound>
COc1ccc(-c2cc3c(=O)n(CCNC(=O)c4ccco4)ccn3n2)cc1

>  <IC50 / mM>
0.00989

$$$$
>  <compound>
COc1ccc2cc(C3CN(C(=O)CCc4n[nH]c(C)n4)CCO3)ccc2c1 (centres unmarked)

>  <IC50 / mM>
0.00989

$$$$

[I] N#Cc1c(-n2ncnc2-c2cccc(Br)c2)sc2c1CCCCC2
[II] O=C(Nc1cccnc1)c1nc2c(o1)CCN(Cc1ccc(O)cc1)CC2
[III] CNc1nc(C(=O)NCc2ccc3[nH]c(-c4ccc(F)cc4)c(C)c3c2)cs1
[IV] CCOc1cc2sc(N3CCC(C(=O)Nc4ccc(C(C)C)cc4)CC3)nc2cc1Br
[V] Cc1ccc(-c2nc(-c3ccccn3)no2)cc1Cl
Q: // sort entries: IC50, high to low The reply should contain the labels ordered as requested.
A: II, III, IV, I, V
(II: 0.018 mM, III: 0.0111 mM, IV: 0.007 mM, I: 0.00313 mM, V: 0.000624 mM)

[I] COc1ccc(-c2cc(N3CCCC(NC(=O)c4ccc5ncccc5c4)C3)[nH]n2)cc1 (centres unmarked)
[II] CCn1ncc(NC(=O)Cn2ncc3cc(-c4ccc(C)cc4F)ccc32)n1
Q: Of the pair I and II , name the member with the lesser recorded IC50. Write down the label attached to your selection.
A: I

* * *

target: FLuc-C-HiBiT (Photinus pyralis); construct: firefly luciferase with C-terminal HiBiT tag, E. coli expressed; test: biochemical; conditions: enzyme activity, 10 uM ATP; read-out: IC50 or SDR50 (mM) / FLuc E
parameter-measured: IC50 (mM)

Solved entries (count: 4):
>  <compound>
COc1ccc(C(=O)Nc2cc(C(C)C)c(O)c([S+](=O)([O-])c3ccc(Cl)cc3)c2C)cc1 [NCGC00102536-01]

>  <parameter-measured>
IC50

>  <measurement-units>
mM

>  <measured-number>
0.0124

$$$$
>  <compound>
CN1CCCN(C(=O)Nc2ccc3c(c2)OCCO3)c2ccccc21 [NCGC00470832-01]

>  <parameter-measured>
IC50

>  <measurement-units>
mM

>  <measured-number>
0.00989

$$$$
>  <compound>
C[C@@H]1C(=O)O[C@H]2[C@H]1CC[C@@]1(C)Cc3sc(NC(=O)COCC(=O)O)nc3[C@@H](C)[C@H]21 [NCGC00391314-01]

>  <parameter-measured>
IC50

>  <measurement-units>
mM

>  <measured-number>
0.0057

$$$$
>  <compound>
CC(=O)NCCC1CCN(C(=O)Nc2ccc(C)cc2)CC1 [NCGC00424871-01]

>  <parameter-measured>
IC50

>  <measurement-units>
mM

>  <measured-number>
0.0124

$$$$

[a] Cc1ccc(-c2noc(-c3nc(C(C)C)no3)n2)cc1 [NCGC00450102-01]
[b] COc1ccc(-c2nc3c4cnn(-c5ccccc5F)c4ncn3n2)cc1 [NCGC00115088-01]
[c] COc1ccc(-c2nc3ncccc3[nH]2)cc1 [NCGC00375673-01]
Q: // sort entries: IC50, high to low The reply should contain the labels ordered as requested.
A: c, a, b
